// data source = paper PMC10397247

Target: T1, 4H967-bN
T1 chain: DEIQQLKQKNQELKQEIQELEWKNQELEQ
Assay: two-hybrid library CCNG1;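 note: natural log of median RNA to DNA barcode read ratio; higher means stronger binding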
measurementLabel: interaction score

The examples below pair each entry with its known result.
binder | interaction score
DEIQQLKQEIQELKQENQELKWKNQELEQ [4H607-bN] | -0.227
DEIQQLKQKNQELKQEIQELEWKNQELEQ [4H967-bN] | -0.749
DEIQQLKQKNQELEQENQELEWKIQELKQ [4H918-bN] | -0.522
DENQQLKQKIQELEQKIQELEWENQELKQ [4H1828-bN] | -0.704

I: DKNQQLEQEIQELKQKNQELEWEIQELEQ [4H3185-bN]
II: DKIQQLKQEIQELKQKIQELKWENQELEQ [4H2667-bN]
III: DEIQQLEQKIQELKQEIQELKWENQELEQ [4H331-bN]
IN: Thanks in advance: please rank these 3 entries by interaction score, highest to lowest. Rank them, then answer with their labels in that order.
OUT: II, III, I
